subjectOfTest: BACE1 (Homo sapiens, UniProt P56817)
Sequence (P56817 46-501, species assumed): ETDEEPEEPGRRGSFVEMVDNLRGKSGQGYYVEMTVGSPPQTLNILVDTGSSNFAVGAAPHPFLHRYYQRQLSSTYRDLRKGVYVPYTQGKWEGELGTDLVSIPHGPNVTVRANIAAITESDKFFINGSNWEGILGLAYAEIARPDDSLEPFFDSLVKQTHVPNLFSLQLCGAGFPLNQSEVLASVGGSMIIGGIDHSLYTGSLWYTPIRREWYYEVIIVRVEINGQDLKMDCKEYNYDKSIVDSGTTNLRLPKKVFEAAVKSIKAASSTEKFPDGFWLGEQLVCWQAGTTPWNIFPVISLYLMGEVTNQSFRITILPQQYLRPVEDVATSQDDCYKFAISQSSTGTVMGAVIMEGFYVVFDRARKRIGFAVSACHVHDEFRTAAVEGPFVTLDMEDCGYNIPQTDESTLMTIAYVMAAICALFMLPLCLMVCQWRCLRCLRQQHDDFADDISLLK
procedureSummary: In Vitro BACE Cell-based Assay (HEK cell assay): Aβ40 in conditioned medium of cells stably expressing Amyloid Precursor Protein, sandwich ELISA
conditionContext: HEK cell assay (uM)
measuredMetric: IC50

In: Report measured IC50 on BACE1 (Homo sapiens, UniProt P56817); entry: NC1=N[C@@]2(CO1)c1cc(-c3cccnc3F)ccc1Oc1cnc(C3=CCCCO3)cc12 [compound 371]
Out: < 0.1 µM

---

Exercise: for every item that follows, state its recorded IC50.
subjectOfTest: BACE1 (Homo sapiens, UniProt P56817)
procedureSummary: In Vitro BACE Cell-based Assay (HEK cell assay): Aβ40 in conditioned medium of cells stably expressing Amyloid Precursor Protein, sandwich ELISA
conditionContext: Table III; IC50's in uM ranges; read-out: HEK cell assay

Working through the 2 compounds below one at a time, give IC50 for each.
1. CC(C)(C)C#Cc1cnc2c(c1)[C@@]1(COC(N)=N1)c1cc(-c3cccnc3)ccc1O2 [185a]
2. CC(C)(C)C[C@H](F)c1ccc2c(c1)[C@]1(COC(N)=N1)c1cc(-c3cncnc3)ccc1O2 [116a]

Out:
["1 to 5 µM", "0.1 to 1 µM"]

---

subjectOfTest: BACE1 (Homo sapiens, UniProt P56817)
procedureSummary: In Vitro BACE Cell-based Assay (HEK cell assay): Aβ40 in conditioned medium of cells stably expressing Amyloid Precursor Protein, sandwich ELISA
conditionContext: Table IV, class symbols; read-out: HEK cell assay
Exercise: for every item that follows, state its recorded IC50.

COC(C)(C)C#Cc1cnc2c(c1)[C@]1(COC(N)=N1)c1cc(-c3cccnc3)ccc1O2 [compound 603]: < 100 nM
NC1=N[C@@]2(CO1)c1cc(-c3cncnc3)ccc1Oc1ncc(C3=CCOCC3)cc12 [compound 805]: < 100 nM
NC1=N[C@]2(CO1)c1ccccc1Oc1ccc(C(=O)NC3CCCCC3)cc12 [compound 621]: > 5000 nM
CC(C)(C)COc1ccc2c(c1)[C@]1(COC(N)=N1)c1cc(-c3cccnn3)ccc1O2 [compound 649]: 100 to 1000 nM
NC1=N[C@]2(CO1)c1cc(Br)ccc1Oc1ncccc12 [compound 600]: > 5000 nM
CC(C)(C#N)COc1cc2c(cc1F)Oc1ccc(-c3cccnc3)cc1[C@@]21COC(N)=N1 [compound 547]: < 100 nM
CC1(C)CN(c2ccc3c(c2)[C@]2(COC(N)=N2)c2cc(-c4cncnc4)ccc2O3)C1 [compound 561]: < 100 nM

In: Determine its reported IC50: NC1=N[C@@]2(CO1)c1ccccc1Oc1ccc(-c3cccnc3)cc12 [compound 640]
Out: 1000 to 5000 nM

---

subjectOfTest: BACE1 (Homo sapiens, UniProt P56817)
procedureSummary: In Vitro Enzymatic BACE FRET (Fluorescence Resonance Energy Transfer) Assay
Assay type: biochemical
conditionContext: Table IV, class symbols; read-out: BACE1 FRET assay
pIC50: −log10 of the molar value.
Exercise: for every item that follows, state its recorded pIC50.

Solved entries:
CC(=O)c1ccc(-c2ccc3c(c2)[C@]2(COC(N)=N2)c2cc(-c4cncnc4)ccc2O3)cc1 [compound 888]: > 7.00
NC1=N[C@@]2(CO1)c1cc(Br)ccc1Oc1c(F)cccc12 [compound 558]: 5.30 to 6.00

Working through the 8 compounds below one at a time, give pIC50 for each.
1. COc1ccc2c(c1)[C@]1(COC(N)=N1)c1cc(-c3cccc4cccnc34)ccc1O2 [compound 590]
2. Cn1cnc(-c2ccc3c(c2)[C@]2(COC(N)=N2)c2cc(-c4cccnc4)ccc2O3)c1 [compound 554]
3. CC(C)(C#N)COc1cc2c(cc1F)Oc1ccc(-c3cccnc3)cc1[C@@]21COC(N)=N1 [compound 547]
4. CN1CCN(c2ccc3c(c2)[C@@]2(COC(N)=N2)c2cc(OCC(C)(C)C)ccc2O3)CC1 [compound 812]
5. COC(C)(C)COc1ccc2c(c1)[C@@]1(COC(N)=N1)c1cc(-c3ccccc3)cnc1O2 [compound 818]
6. NC1=N[C@@]2(CO1)c1ccccc1Oc1ccc(C(=O)N3CCCCC3)cc12 [compound 639]
7. COC(=O)c1ccc2c(c1)[C@@]1(COC(N)=N1)c1cc(OCC(C)(C)C)ccc1O2 [compound 875]
8. NC1=N[C@]2(CO1)c1ccccc1Oc1ccc(-c3cc4ccccc4[nH]3)cc12 [compound 567]

Out:
1. 5.30 to 6.00
2. 6.00 to 7.00
3. > 7.00
4. 5.30 to 6.00
5. > 7.00
6. < 5.30
7. > 7.00
8. 5.30 to 6.00

---

subjectOfTest: BACE1 (Homo sapiens, UniProt P56817)
procedureSummary: In Vitro Enzymatic BACE FRET (Fluorescence Resonance Energy Transfer) Assay
Assay type: biochemical
conditionContext: read-out: BACE1 FRET assay
Experimental: In Vitro Enzymatic BACE FRET (Fluorescence Resonance Energy Transfer) Assay (Enzyme Assay Data in the Example Tables I, II, III & IV) The assay buffer used in this screen is 0.05 M acetate, pH 4.2, 10% DMSO final, 100 uM genapol (which is a nonionic detergent, below its Critical Micelle Concentration). […] The FRET assay is terminated with by addition of Tris buffer, which raises the pH to neutrality, and the fluorescence is determined. […]
measuredMetric: IC50

Solved entries:
CC1(COc2cnc3c(c2)[C@]2(COC(N)=N2)c2cc(-c4ccccc4F)ccc2O3)COC1 [compound 458]: < 100 nM
CC(C)(C)COc1ccc2c(c1)[C@]1(COC(N)=N1)c1cc(C3=CCCC3)ccc1O2 [compound 731]: 100 to 1000 nM
CC(C)(F)COc1cc2c(cc1F)Oc1ccc(-c3cncnc3)cc1[C@@]21COC(N)=N1 [compound 530]: < 100 nM
CC(C)(C)OC(=O)Cc1ccc2c(c1)[C@]1(COC(N)=N1)c1cc(Br)ccc1O2 [compound 707]: > 5000 nM
CC1(COc2cc3c(cc2F)Oc2ccc(-c4cncnc4)cc2[C@]32COC(N)=N2)COC1 [compound 713]: 100 to 1000 nM

Working through the 4 compounds below one at a time, give IC50 for each.
1. NC1=N[C@]2(CO1)c1cc(-c3ccc(F)cc3)ccc1Oc1ncc(C3=CCOCC3)cc12 [compound 691]
2. CC1(C)CN(c2cnc3c(c2)[C@]2(COC(N)=N2)c2cc(-c4cccnc4F)ccc2O3)CCO1 [compound 463]
3. CC1(C)CN(c2ccc3c(c2)[C@]2(COC(N)=N2)c2cc(-c4cccnc4F)ccc2O3)CCO1 [Example 290]
4. CC(C)(F)COc1cnc2c(c1)[C@]1(COC(N)=N1)c1cc(-c3cccnc3F)ccc1O2 [compound 449]

Out:
1. 1000 to 5000 nM
2. < 100 nM
3. < 100 nM
4. < 100 nM

Working through the 3 compounds below one at a time, give IC50 for each.
1. NC1=N[C@@]2(CO1)c1cc(-c3cc(F)ccc3F)ccc1Oc1ncc(C3=CCOCC3)cc12 [compound 487]
2. CC(C)(C)C#Cc1cnc2c(c1)[C@@]1(COC(N)=N1)c1cc(Oc3ccccn3)ccc1O2 [compound 927]
3. CC(C)(C)COc1ccc2c(c1)[C@]1(CSC(N)=N1)c1cc(-c3cncnc3)ccc1O2 [compound 720]

Out:
1. < 100 nM
2. 100 to 1000 nM
3. < 100 nM

---

subjectOfTest: UniProt P56817
procedureSummary: In Vitro Enzymatic BACE FRET (Fluorescence Resonance Energy Transfer) Assay
Format: biochemical
conditionContext: Table III; IC50's in uM ranges; read-out: BACE1 FRET assay
measuredMetric: IC50

Solved entries:
NC1=N[C@]2(CO1)c1cc(Br)ccc1Oc1ccc(Oc3ccccn3)cc12: 0.1 to 1 µM
NC1=N[C@]2(CO1)c1cc(CCCCO)ccc1Oc1ccc(-c3cccnc3)cc12: < 0.1 µM
CC(C)(C)C[C@H](F)c1ccc2c(c1)[C@]1(COC(N)=N1)c1cc(-c3cncnc3)ccc1O2 [116a]: < 0.1 µM
NC1=N[C@]2(CO1)c1cc(-c3cccnc3)ccc1Oc1ncc(-c3cccnc3)cc12: < 0.1 µM
COc1ccc2c(c1)[C@@]1(N=C(N)O[C@@H]1C)c1cc(-c3cncnc3)ccc1O2 (single isomer, unassigned) [Example 125d]: 0.1 to 1 µM

Working through the 2 molecules below one at a time, give IC50 for each.
1. CCOC(C)(C)COc1ccc2c(c1)[C@]1(COC(N)=N1)c1cc(-c3cncnc3)ccc1O2
2. CC(=O)c1ccccc1-c1ccc2c(c1)[C@]1(COC(N)=N1)c1cc(OCC(C)(C)C)ccc1O2

Out:
< 0.1 µM
0.1 to 1 µM

In: Determine its reported IC50: "C=C(C)COc1ccc2c(c1)[C@]1(COC(N)=N1)c1cc(-c3cccnc3)ccc1O2"
Out: < 0.1 µM

Source listed as patent US8426447B2.
